// data source = patent US20260200921A1

Molecular target: AKT1 E17K (Homo sapiens, UniProt P31749, E17K)
Construct: Purified human recombinant kinase full-length AKT1 E17K was expressed in insect cells
Sequence (P31749 whole entry E17K): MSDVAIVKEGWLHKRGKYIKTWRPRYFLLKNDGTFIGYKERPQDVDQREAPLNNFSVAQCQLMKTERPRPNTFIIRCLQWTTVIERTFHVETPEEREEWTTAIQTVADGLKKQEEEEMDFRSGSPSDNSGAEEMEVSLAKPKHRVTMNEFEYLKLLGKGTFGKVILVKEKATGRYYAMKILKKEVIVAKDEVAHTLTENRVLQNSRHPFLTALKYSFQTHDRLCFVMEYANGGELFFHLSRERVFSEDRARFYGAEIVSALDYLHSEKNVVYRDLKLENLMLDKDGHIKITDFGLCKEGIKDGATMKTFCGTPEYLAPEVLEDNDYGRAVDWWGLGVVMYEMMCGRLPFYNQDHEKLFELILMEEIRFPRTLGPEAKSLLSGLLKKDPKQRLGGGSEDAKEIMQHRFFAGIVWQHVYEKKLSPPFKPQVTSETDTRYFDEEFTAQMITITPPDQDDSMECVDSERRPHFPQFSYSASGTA
Test: AKT1 E17K kinase assay (TR-FRET, Lance)
Settings: full-length human recombinant AKT1 E17K activated by PDPK1; Ulight-CREBtide substrate; either 50 μM ATP or 2 mM ATP
Description: AKT1 E17K kinase assay: Inhibitory effects of compounds on AKT1 E17K were undertaken in a 10-pt dose response kinase activity assay measuring phospho-peptide product formation based on TR-FRET signal as described in the following paragraph. Purified human recombinant kinase full-length AKT1 E17K was expressed in insect cells and activated in vitro by PDPK1. […] The fluorescence emissions at 620 nm and 665 nm after excitation at 350 nm was measured using Envision reader. […]
test-readout: IC50

Worked cases, answers included:
sample-smiles	IC50
Cc1nc(NC(=O)c2cccc(-c3nsc(=O)[nH]3)c2)ccc1-n1c(-c2cccnc2N)nc2ccc(-c3ccccc3)nc21	< 50 nM
COc1cc(C)nn1-c1ccc(C(=O)NCc2ccc(-n3c(-c4cccnc4N)nc4ccc(-c5ccccc5)nc43)cc2)cc1	200 to 500 nM

Here is the next item to consider.
The molecule Cc1cc(C#N)n(-c2ccc(C(=O)NCc3ccc(-n4c(-c5cccnc5N)nc5ccc(-c6ccccc6)nc54)cc3)cc2)n1 on AKT1 E17K (Homo sapiens, UniProt P31749, E17K): IC50 was 200 to 500 nM

* * *

Each entry below carries its recorded IC50.
target: AKT1 E17K (Homo sapiens, UniProt P31749, E17K); construct: Purified human recombinant kinase full-length AKT1 E17K was expressed in insect cells; test: AKT1 E17K kinase assay (TR-FRET, Lance); settings: full-length human recombinant AKT1 E17K activated by PDPK1; Ulight-CREBtide substrate; either 50 μM ATP or 2 mM ATP

Worked cases, answers included:
molecule	IC50
Nc1ncccc1-c1nc2ccc(-c3ccccc3)nc2n1-c1ccc(C2CN(C(=O)c3ccc(-c4nn[nH]n4)cc3)C2)cc1 [Compound I-26]	< 50 nM
Cc1cc(O)n(-c2ccc(C(=O)NCc3ccc(-n4c(-c5cccnc5N)nc5ccc(-c6ccccc6)nc54)nc3)cc2)n1 [Compound I-22]	≥ 500 nM
Nc1ncccc1-c1nc2ccc(-c3ccccc3)nc2n1-c1ccc(CNC(=O)c2cccc(-n3nc(C(F)(F)F)cc3O)c2)cc1 [Compound I-7]	≥ 500 nM
Cc1cc(C(N)=O)nn1-c1ccc(C(=O)NCc2ccc(-n3c(-c4cccnc4N)nc4ccc(-c5ccccc5)nc43)cc2)cc1 [Compound I-17]	200 to 500 nM
Nc1ncccc1-c1nc2ccc(-c3ccccc3)nc2n1-c1ccc(CNC(=O)c2ccc(-n3nc(C(F)(F)F)cc3O)cc2)cc1 [Compound I-6]	200 to 500 nM
N#Cc1cc(O)n(-c2ccc(C(=O)NCc3ccc(-n4c(-c5cccnc5N)nc5ccc(-c6ccccc6)nc54)cc3)cc2)n1 [Compound I-15]	50 to 200 nM
Cc1cc(O)n(-c2ccc(C(=O)NCc3ccc(-n4c(-c5cccnc5N)nc5ccc(-c6ccccc6)nc54)cc3)cn2)n1 [Compound I-18]	< 50 nM
Cc1nc(NC(=O)[C@H]2CC[C@H](c3nn[nH]n3)CC2)ccc1-n1c(-c2cccnc2N)nc2ccc(-c3ccccc3)nc21 [Compound I-39]	200 to 500 nM
Nc1ncccc1-c1nc2ccc(-c3ccccc3)nc2n1-c1ccc(CNC(=O)c2ccc(-n3cc(C(=O)O)cn3)cc2)cc1 [Compound I-11]	< 50 nM
Nc1ncccc1-c1nc2ccc(-c3ccccc3)nc2n1-c1ccc(C2CCN(C[C@H]3CC[C@@H](c4nsc(=O)[nH]4)CC3)CC2)cc1 [Compound I-46]	≥ 500 nM

The molecule Cc1cc(O)n(-c2ccc(C(=O)NCc3ccc(-n4c(-c5cccnc5N)nc5ccc(-c6ccccc6)nc54)cc3)nc2)n1 [Compound I-19] on AKT1 E17K (Homo sapiens, UniProt P31749, E17K): IC50 was 200 to 500 nM

The molecule Nc1ncccc1-c1nc2ccc(-c3ccccc3)nc2n1-c1ccc(NC(=O)c2ccc(-c3nsc(=O)[nH]3)cc2F)nc1 [Compound I-41] on AKT1 E17K (Homo sapiens, UniProt P31749, E17K): IC50 was 50 to 200 nM

The molecule Cc1nc(NC(=O)c2ccc(-c3nsc(=O)[nH]3)cc2)ccc1-n1c(-c2cccnc2N)nc2ccc(-c3ccccc3)nc21 [Compound I-42] on AKT1 E17K (Homo sapiens, UniProt P31749, E17K): IC50 was 50 to 200 nM

The molecule Nc1ncccc1-c1nc2ccc(-c3ccccc3)nc2n1-c1ccc(CNC(=O)c2ccc(-c3nn[nH]n3)cc2)cc1 [Compound I-20] on AKT1 E17K (Homo sapiens, UniProt P31749, E17K): IC50 was < 50 nM

The molecule Nc1ncccc1-c1nc2ccc(-c3ccccc3)nc2n1-c1ccc(C2CCN(C[C@H]3CC[C@H](c4nsc(=O)[nH]4)CC3)CC2)cc1 [Compound I-45] on AKT1 E17K (Homo sapiens, UniProt P31749, E17K): IC50 was ≥ 500 nM

The molecule Cc1cc(O)n(-c2ccc(C(=O)NCc3ccc(-n4c(-c5cccnc5N)nc5cc(-c6ccccc6)cnc54)cc3)cc2)n1 [Compound I-23] on AKT1 E17K (Homo sapiens, UniProt P31749, E17K): IC50 was ≥ 500 nM

The molecule Nc1ncccc1-c1nc2ccc(-c3ccccc3)nc2n1-c1ccc(CNC(=O)c2cccc(-c3nn[nH]n3)c2)cc1 [Compound I-21] on AKT1 E17K (Homo sapiens, UniProt P31749, E17K): IC50 was 50 to 200 nM

The molecule Cc1cc(C(N)=O)n(-c2ccc(C(=O)NCc3ccc(-n4c(-c5cccnc5N)nc5ccc(-c6ccccc6)nc54)cc3)cc2)n1 [Compound I-16] on AKT1 E17K (Homo sapiens, UniProt P31749, E17K): IC50 was 200 to 500 nM

The molecule Cc1cc(O)n(-c2ccc(C(=O)NCc3ccc(-n4c(-c5cccnc5N)nc5ccc(-c6ccccc6)nc54)cc3)cc2)n1 [Compound I-1] on AKT1 E17K (Homo sapiens, UniProt P31749, E17K): IC50 was 50 to 200 nM

The molecule COC(=O)Cc1cc(O)n(-c2ccc(C(=O)NCc3ccc(-n4c(-c5cccnc5N)nc5ccc(-c6ccccc6)nc54)cc3)cc2)n1 [Compound I-9] on AKT1 E17K (Homo sapiens, UniProt P31749, E17K): IC50 was 50 to 200 nM

The molecule CN(Cc1ccc(-n2c(-c3cccnc3N)nc3ccc(-c4ccccc4)nc32)cc1)[C@H]1CC[C@H](c2nsc(=O)[nH]2)CC1 [Compound I-47] on AKT1 E17K (Homo sapiens, UniProt P31749, E17K): IC50 was ≥ 500 nM

The molecule Cc1cc(O)n(-c2ccc(C(=O)NCc3ccc(-n4c(-c5cccnc5N)nc5ccc(-c6ccccc6)nc54)cc3)c(F)c2)n1 [Compound I-4] on AKT1 E17K (Homo sapiens, UniProt P31749, E17K): IC50 was 50 to 200 nM

The molecule Nc1ncccc1-c1nc2ccc(-c3ccccc3)nc2n1-c1ccc(C2CN(C[C@H]3CC[C@H](c4nsc(=O)[nH]4)CC3)C2)cc1 [Compound I-43] on AKT1 E17K (Homo sapiens, UniProt P31749, E17K): IC50 was ≥ 500 nM

The molecule N#Cc1cnn(-c2ccc(C(=O)NCc3ccc(-n4c(-c5cccnc5N)nc5ccc(-c6ccccc6)nc54)cc3)cc2)c1 [Compound I-12] on AKT1 E17K (Homo sapiens, UniProt P31749, E17K): IC50 was 200 to 500 nM

The molecule Nc1ncccc1-c1nc2ccc(-c3ccccc3)nc2n1-c1ccc(CNC(=O)c2ccc(-n3nc(CC(=O)O)cc3O)cc2)cc1 [Compound I-10] on AKT1 E17K (Homo sapiens, UniProt P31749, E17K): IC50 was < 50 nM
